Biological target: hTRPC6 (Homo sapiens, UniProt Q9Y210)
Construct: expressed in transfected cells
Sequence (Q9Y210 1-931): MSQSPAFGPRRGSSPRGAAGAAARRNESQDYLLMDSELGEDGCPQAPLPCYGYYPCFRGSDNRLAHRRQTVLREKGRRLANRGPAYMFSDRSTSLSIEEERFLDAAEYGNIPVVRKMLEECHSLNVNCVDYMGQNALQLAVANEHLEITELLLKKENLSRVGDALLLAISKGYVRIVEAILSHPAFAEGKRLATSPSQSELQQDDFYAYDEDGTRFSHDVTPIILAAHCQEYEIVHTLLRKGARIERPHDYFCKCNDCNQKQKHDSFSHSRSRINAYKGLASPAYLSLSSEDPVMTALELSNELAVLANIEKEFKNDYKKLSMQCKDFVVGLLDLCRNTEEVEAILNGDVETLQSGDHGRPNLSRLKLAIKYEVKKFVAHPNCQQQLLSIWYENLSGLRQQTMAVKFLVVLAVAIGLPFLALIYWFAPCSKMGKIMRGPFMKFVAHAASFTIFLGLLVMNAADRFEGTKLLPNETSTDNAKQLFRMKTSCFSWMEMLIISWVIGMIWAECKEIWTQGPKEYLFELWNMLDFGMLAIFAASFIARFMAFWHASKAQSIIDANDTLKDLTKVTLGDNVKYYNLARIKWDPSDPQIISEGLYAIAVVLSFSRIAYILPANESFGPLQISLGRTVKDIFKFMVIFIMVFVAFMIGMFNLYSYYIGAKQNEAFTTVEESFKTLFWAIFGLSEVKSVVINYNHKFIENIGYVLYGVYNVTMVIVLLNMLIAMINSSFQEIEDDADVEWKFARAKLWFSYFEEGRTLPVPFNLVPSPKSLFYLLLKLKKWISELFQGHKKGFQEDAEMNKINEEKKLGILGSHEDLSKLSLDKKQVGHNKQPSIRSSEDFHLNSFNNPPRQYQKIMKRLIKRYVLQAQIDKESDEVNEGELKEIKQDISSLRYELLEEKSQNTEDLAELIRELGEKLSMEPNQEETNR
Assay: OAG-induced Ca2+ entry, fluo-4 fluorometric imaging plate reader, TRPC6 HEK-FITR cells
Type: cell-based
Settings: TRPC6 HEK-FITR cells, fluo-4, area under the curve, 10 min pre-incubation; read-out: IC50, inhibition of OAG-induced Ca2+ entry via TRPC6
MEASURED_ATTRIBUTE: pIC50
Quick note: pIC50 means taking -log10 of the concentration in moles per liter.

Entry CC(=O)[C@H]1CC[C@H]2[C@@H]3CCC4=CC(=O)CC[C@]4(C)[C@H]3CC[C@]12C — recorded pIC50 = 4.74

* * *

Test system: rat aortic rings
Assay: Isometric force measurement, relaxation of phenylephrine pre-contracted rat aortic rings
Settings: L-NAME treated, n = 6, read-out: EC50, vasorelaxation of pre-contracted aortic rings
MEASURED_ATTRIBUTE: pEC50
Quick note: pEC50 means taking -log10 of the concentration in moles per liter.

Entry C#C[C@]1(OC(C)=O)CC[C@H]2[C@@H]3CCC4=CC(=NO)CC[C@@H]4[C@H]3CC[C@@]21CC (mixture of isomers) [norgestimate] — recorded pEC50 = 5.09

* * *

Biological target: hTRPC3 (Homo sapiens, UniProt Q13507)
Sequence (Q13507 74-921): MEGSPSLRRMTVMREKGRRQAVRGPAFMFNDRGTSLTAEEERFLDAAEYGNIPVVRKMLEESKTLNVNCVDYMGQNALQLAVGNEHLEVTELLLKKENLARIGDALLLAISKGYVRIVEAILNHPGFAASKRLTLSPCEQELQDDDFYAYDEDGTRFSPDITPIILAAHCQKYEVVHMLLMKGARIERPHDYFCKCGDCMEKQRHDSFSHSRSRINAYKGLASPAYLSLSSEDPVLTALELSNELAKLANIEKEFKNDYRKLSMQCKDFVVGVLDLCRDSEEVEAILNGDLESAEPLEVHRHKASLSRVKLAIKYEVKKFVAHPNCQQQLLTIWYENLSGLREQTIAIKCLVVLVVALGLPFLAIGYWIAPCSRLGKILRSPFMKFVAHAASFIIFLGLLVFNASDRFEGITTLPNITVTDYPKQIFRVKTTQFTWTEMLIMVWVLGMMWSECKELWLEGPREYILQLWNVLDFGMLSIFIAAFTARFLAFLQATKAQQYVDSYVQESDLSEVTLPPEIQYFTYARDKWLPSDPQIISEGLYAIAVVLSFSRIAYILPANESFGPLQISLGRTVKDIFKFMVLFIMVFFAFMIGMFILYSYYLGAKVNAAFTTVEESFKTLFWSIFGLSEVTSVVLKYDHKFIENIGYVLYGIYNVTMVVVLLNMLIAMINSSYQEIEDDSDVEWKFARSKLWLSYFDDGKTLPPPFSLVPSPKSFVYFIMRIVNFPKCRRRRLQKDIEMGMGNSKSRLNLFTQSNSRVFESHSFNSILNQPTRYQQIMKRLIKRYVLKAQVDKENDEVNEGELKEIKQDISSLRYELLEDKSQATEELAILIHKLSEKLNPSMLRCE
Assay: OAG-induced Ca2+ entry, fluo-4 fluorometric imaging plate reader, TRPC3 CHO cells
Details: TRPC3 CHO cells, fluo-4, area under the curve, 10 min pre-incubation; read-out: IC50, inhibition of OAG-induced Ca2+ entry via TRPC3
Text: hTRPC3 (GenBank accession number NM_003305) was stably expressed in chinese hamster ovary (CHO) cells using a proprietary high expression vector (Steinbeis -Transferzentrum für Angewandte Biologische Chemie, Mannheim, Germany). […] Fluo-4 fluorescence was excited at 488 nm with an argon laser and measured using a fluorometric imaging plate reader (Molecular Devices, Sunnyvale, USA). […] Averaged data is expressed as means ± SEM.
MEASURED_ATTRIBUTE: pIC50
Quick note: pIC50 means taking -log10 of the concentration in moles per liter.

Entry CC(=O)[C@H]1CC[C@H]2[C@@H]3CCC4=CC(=O)CC[C@]4(C)[C@H]3CC[C@]12C [progesterone] — recorded pIC50 = 4.91
